# AUC(0-t) at 24 h per entry
- methodDescription: AUC (0 to 24 hrs) in rat at 5 mg/kg, iv
- Assay type: ADME, organism-based
- Set-up: time < 24 hr, dose 5 mg/kg, route intravenous
- conditionParameters: in vivo
Just the number please, in nM·h, no unit attached.

molecularString | AUC(0-t) at 24 h (nM·h)
CCS(=O)(=O)NC(=O)c1ccc2c(C3CCCCC3)c3n(c2c1)C[C@@]1(C(=O)N2C4CCC2CN(C)C4)C[C@H]1c1cc(F)ccc1-3 | 857

Now for the compound whose AUC(0-t) at 24 h we want.
The compound listed as CN1CC2CCC(C1)N2C(=O)[C@]12C[C@H]1c1cc(F)ccc1-c1c(C3CCCCC3)c3ccc(C(=O)NS(=O)(=O)C4CC4)cc3n1C2 shows AUC(0-t) at 24 h equal to 1510

* * *

- methodDescription: Oral bioavailability in dog at 3 mg/kg
- Assay type: ADME, organism-based, Canis lupus familiaris
- conditionParameters: in vivo
assayEndpoint: bioavailability
Please answer using the number first and the unit second.

The molecule listed as CN1CC2CCC(C1)N2C(=O)[C@]12C[C@H]1c1cc(F)ccc1-c1c(C3CCCCC3)c3ccc(C(=O)NS(=O)(=O)C4(C)CC4)cc3n1C2 shows bioavailability equal to 84%

* * *

# Papp per entry
- methodDescription: Apparent permeability of the compound at pH 5.5 by PAMPA
- Format: physicochemical
Just the number please, in ×10⁻⁶ cm/s, no unit attached.

molecularString | assayEndpoint | resultUnits | quantitativeResult
CN1CC2CCC(C1)N2C(=O)[C@]12C[C@H]1c1cc(F)ccc1-c1c(C3CCCCC3)c3ccc(C(=O)NS(=O)(=O)C(C)(C)C)cc3n1C2 | Papp | ×10⁻⁶ cm/s | 13.5

Now for the molecule whose Papp we want.
The molecule listed as CN1CC2CCC(C1)N2C(=O)[C@]12C[C@H]1c1cc(F)ccc1-c1c(C3CCCCC3)c3ccc(C(=O)NS(=O)(=O)C4(C)CC4)cc3n1C2 shows Papp equal to 52.3

* * *

- methodDescription: AUC (0 to 24 hrs) in rat at 10 mg/kg, iv
- Format: ADME, organism-based
- Set-up: dose 10 mg/kg, time < 24 hr, route intravenous
- conditionParameters: in vivo
assayEndpoint: AUC(0-t) at 24 h (µM·h)
Just the number please, in µM·h, no unit attached.

The compound listed as CN1CC2CCC(C1)N2C(=O)[C@]12C[C@H]1c1cc(F)ccc1-c1c(C3CCCCC3)c3ccc(C(=O)NS(=O)(=O)C4(C)CC4)cc3n1C2 shows AUC(0-t) at 24 h equal to 12.4

* * *

- methodDescription: Apparent permeability of the compound at pH 7.4 by PAMPA
- Type: physicochemical
assayEndpoint: Papp (×10⁻⁶ cm/s)
Just the number please, in ×10⁻⁶ cm/s, no unit attached.

molecularString | resultUnits | quantitativeResult
CN1CC2CCC(C1)N2C(=O)[C@]12C[C@H]1c1cc(F)ccc1-c1c(C3CCCCC3)c3ccc(C(=O)NS(=O)(=O)C4(C)CC4)cc3n1C2 | ×10⁻⁶ cm/s | 59

The molecule listed as CN1CC2CCC(C1)N2C(=O)[C@]12C[C@H]1c1cc(F)ccc1-c1c(C3CCCCC3)c3ccc(C(=O)NS(=O)(=O)C(C)(C)C)cc3n1C2 shows Papp equal to 23.8
